Reported remaining activity at 1 µM values follow for various compounds
target: S. aureus DNA gyrase (Staphylococcus aureus, UniProt P0A0K8); experiment: DNA gyrase supercoiling plate assay; type: biochemical; conditions: read-out: RA (residual activity) S. aureus gyrase
Sequence (P0A0K8 whole entry): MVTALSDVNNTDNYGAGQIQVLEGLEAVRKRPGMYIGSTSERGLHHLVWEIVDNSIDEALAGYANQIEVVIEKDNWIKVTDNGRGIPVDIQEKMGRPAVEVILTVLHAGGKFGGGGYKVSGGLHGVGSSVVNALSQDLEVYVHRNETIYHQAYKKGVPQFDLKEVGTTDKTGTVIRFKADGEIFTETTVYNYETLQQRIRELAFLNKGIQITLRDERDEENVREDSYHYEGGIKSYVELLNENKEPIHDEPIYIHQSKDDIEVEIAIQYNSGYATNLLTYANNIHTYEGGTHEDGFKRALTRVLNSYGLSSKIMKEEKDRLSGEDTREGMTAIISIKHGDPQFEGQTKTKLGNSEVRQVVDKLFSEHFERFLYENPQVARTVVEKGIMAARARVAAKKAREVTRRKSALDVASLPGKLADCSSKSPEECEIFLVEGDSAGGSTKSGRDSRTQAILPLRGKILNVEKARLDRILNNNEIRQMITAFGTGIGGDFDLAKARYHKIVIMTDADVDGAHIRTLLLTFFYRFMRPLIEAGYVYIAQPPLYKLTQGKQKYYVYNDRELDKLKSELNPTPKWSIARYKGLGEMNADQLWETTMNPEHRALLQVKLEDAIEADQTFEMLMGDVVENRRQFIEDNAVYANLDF
Sequence (P20831 whole entry partner): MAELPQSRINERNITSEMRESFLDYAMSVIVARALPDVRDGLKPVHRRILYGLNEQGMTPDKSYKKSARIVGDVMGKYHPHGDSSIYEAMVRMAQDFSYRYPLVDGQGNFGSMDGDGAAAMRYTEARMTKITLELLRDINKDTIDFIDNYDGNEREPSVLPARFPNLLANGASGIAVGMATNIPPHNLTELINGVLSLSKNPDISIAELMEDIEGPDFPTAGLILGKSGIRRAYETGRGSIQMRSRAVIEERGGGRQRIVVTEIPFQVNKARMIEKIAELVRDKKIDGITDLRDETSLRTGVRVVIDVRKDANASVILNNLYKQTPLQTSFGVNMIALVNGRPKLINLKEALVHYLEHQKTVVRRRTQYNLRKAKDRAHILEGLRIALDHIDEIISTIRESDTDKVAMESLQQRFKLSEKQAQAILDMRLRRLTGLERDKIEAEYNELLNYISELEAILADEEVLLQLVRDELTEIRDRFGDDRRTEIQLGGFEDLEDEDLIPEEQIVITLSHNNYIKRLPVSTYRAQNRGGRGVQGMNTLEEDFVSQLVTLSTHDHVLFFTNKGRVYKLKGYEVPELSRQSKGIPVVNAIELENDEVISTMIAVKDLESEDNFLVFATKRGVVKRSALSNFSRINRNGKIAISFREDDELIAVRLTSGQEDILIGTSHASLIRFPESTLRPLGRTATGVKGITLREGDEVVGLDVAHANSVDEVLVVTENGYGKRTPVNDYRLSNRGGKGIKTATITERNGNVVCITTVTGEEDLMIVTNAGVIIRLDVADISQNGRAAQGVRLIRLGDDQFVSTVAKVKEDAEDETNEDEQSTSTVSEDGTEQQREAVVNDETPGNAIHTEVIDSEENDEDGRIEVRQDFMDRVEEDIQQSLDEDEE
Express your answer in %, writing the number without its unit.

Reference set, count: 3
[[record]]
compound = "COC(=O)c1ccc(NC(=O)c2[nH]c(C)c(Cl)c2Cl)c(N2CCC[C@H](N)C2)c1.Cl [Compound 19c]"
readout_label = "remaining activity at 1 µM"
recorded_measurement = 27

[[record]]
compound = "COC(=O)c1ccc(NC(=O)c2[nH]c(C)c(Cl)c2Cl)c(N2CCNCC2)c1.Cl [Compound 19a]"
readout_label = "remaining activity at 1 µM"
recorded_measurement = 45

[[record]]
compound = "Cc1[nH]c(C(=O)Nc2ccc(C(=O)O)cc2N2CCN(C(=O)OC(C)(C)C)CC2)c(Cl)c1Cl [Compound 18a]"
readout_label = "remaining activity at 1 µM"
recorded_measurement = 54


Turning now to a further compound:
Req: Value lookup for remaining activity at 1 µM; key = Cc1[nH]c(C(=O)Nc2ccc(C(=O)NCC(=O)O)cc2N2CCN(C(=O)OC(C)(C)C)CC2)c(Cl)c1Cl
Resp: 37

These data points were gathered from paper PMC11378028.
